Values compiled from the RNAGym collection of RNA variant scans (doi:10.1073/pnas.2313332121).

B1: TPR t1 (parent)
chain: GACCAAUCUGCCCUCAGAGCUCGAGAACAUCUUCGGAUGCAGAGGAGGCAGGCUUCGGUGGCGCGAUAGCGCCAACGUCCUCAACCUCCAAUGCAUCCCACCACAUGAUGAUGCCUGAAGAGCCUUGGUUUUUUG

Variants of: B1
Test: polymerase ribozyme fitness, log enrichment relative to wild type (log ratio); higher = more active; in vitro selection for triplet polymerase activity
The recorded polymerase ribozyme fitness (log ratio) of each item maps onto one of these classes: interval 1 (below -5), interval 2 (-5 to below -2), interval 3 (-2 or more)

Below, 4 variants whose answers are already recorded.
sequence_change="C94U G110A" label_class="interval 3"
sequence_change="G42U U130A" label_class="interval 3"
sequence_change="A26U G61U U112C" label_class="interval 2"
sequence_change="G47U G120U" label_class="interval 3"

**Query** Class (by measured polymerase ribozyme fitness (log ratio)) for G39A C124A
**Result** interval 3

**Query** Would you mind sorting A46U C62U A91U A103G U106A C114U U131G into the appropriate category?
**Result** interval 1
